# tested system: human Opioid Receptor Delta 1 (Opiate D1), OPRD1 (gene 4985)
# experiment summary: NVS_GPCR_hOpiate_D1: NovaScreen (NVS) G Protein-Coupled Receptor Assay for human Opioid Receptor Delta 1 (Opiate D1) (AID 2283280)
Records with an inconclusive call do not appear. Activity calls are given as the source filed them. The calls were made as follows: active = hit-call score of the fitted dose curve at least 0.9, where 1 is the maximum; inconclusive = response in the unintended direction; inactive = score below 0.9.
Choose one outcome from this list and give only that: yes for active, no for inactive

Ask: Hi, do you know how O=C(c1ccc(O)cc1O)c1ccc(O)cc1O came out in this test?
Reply: yes

Ask: Hi, do you know how C=CCOC(Cn1ccnc1)c1ccc(Cl)cc1Cl (stereo unspecified) came out in this test?
Reply: yes

----------
# Read-out: Transforming growth factor beta 1 (TGFb1), TGFB1 (gene 7040)
# experiment summary: BSK_KF3CT_TGFb1: BioMAP Diversity Plus: KF3CT Assay for Transforming growth factor beta 1 (TGFb1) Biomarker Activity (AID 2283072)
# assay conditions: primary human keratinocytes with fibroblasts; actives raise or lower the signal
Activity calls are given as the source filed them. How the source made its calls: active means hit-call score of the fitted dose curve at least 0.9, where 1 is the maximum; inactive means score below 0.9.
Choose one outcome from this list and give only that: Y for active, N for inactive

Consider the following illustrative entries.
- compound: "CN(C)C(=O)Nc1ccc(Cl)c(Cl)c1"
  label value: "N"
- compound: "c1ccc2[nH]c(-c3cscn3)nc2c1"
  label value: "N"
- compound: "CSC(=O)c1cccc2nnsc12"
  label value: "N"
- compound: "CCC(C)OC(=O)N1CCCCC1CCO (configuration not stated)"
  label value: "N"

Continue with the next compound.
Ask: Hi, do you know how S=C([S-])NCCNC(=S)[S-].[Mn+2] came out in this test?
Reply: N
